Listing of recorded pIC50 by entry.
# target: T1, recombinant human αvβ3 integrin extracellular domains (human, UniProt P06756 1-992; P05106 1-718, Secreted glycoprotein heterodimer. It is biotinylated on the omitted Avitag, and an interchain disulfide sits in the omitted coiled-coils.)
# T1 construct: Soluble heterodimer co-expressed in Expi293 cells; also called hαvβ3; not shown: Alpha chain: acidic coiled-coil with cysteine and GG-Avitag; Beta chain: basic coiled-coil with cysteine and GG-Avitag
# experimentalDetails: AlphaLISA blocking of human vitronectin-GST binding
Quick note: pIC50 means taking -log10 of the concentration in moles per liter.

Example cases with answers are listed next.
Ab-33 (antibody, V domains shown) VH: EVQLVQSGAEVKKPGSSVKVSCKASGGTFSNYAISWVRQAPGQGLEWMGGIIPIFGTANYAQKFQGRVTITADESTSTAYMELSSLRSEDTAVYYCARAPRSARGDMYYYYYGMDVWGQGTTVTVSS VL: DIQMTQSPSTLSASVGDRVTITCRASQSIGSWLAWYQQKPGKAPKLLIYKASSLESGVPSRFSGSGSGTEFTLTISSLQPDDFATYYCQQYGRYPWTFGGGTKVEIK; 8.89
Ab-30 (antibody, V domains shown) VH: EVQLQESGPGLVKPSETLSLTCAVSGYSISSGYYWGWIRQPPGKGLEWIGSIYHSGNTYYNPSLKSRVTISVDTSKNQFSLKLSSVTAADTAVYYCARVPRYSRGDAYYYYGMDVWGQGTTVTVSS VL: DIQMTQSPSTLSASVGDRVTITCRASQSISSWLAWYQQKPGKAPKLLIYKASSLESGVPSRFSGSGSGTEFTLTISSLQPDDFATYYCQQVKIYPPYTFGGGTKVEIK; 8.91
control antibody abituzumab (mAb-24) (antibody, V domains shown) VH: QVQLQQSGGELAKPGASVKVSCKASGYTFSSFWMHWVRQAPGQGLEWIGYINPRSGYTEYNEIFRDKATMTTDTSTSTAYMELSSLRSEDTAVYYCASFLGRGAMDYWGQGTTVTVSS VL: DIQMTQSPSSLSASVGDRVTITCRASQDISNYLAWYQQKPGKAPKLLIYYTSKIHSGVPSRFSGSGSGTDYTFTISSLQPEDIATYYCQQGNTFPYTFGQGTKVEIKR; 8.25
Ab-32 (antibody, V domains shown) VH: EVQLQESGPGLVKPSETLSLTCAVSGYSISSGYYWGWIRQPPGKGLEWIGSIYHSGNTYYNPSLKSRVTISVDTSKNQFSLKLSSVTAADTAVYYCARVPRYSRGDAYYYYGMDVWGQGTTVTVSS VL: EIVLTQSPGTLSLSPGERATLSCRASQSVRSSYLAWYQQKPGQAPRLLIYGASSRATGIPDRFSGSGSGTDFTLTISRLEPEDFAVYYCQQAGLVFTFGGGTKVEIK; 8.99
Ab-29 (antibody, V domains shown) VH: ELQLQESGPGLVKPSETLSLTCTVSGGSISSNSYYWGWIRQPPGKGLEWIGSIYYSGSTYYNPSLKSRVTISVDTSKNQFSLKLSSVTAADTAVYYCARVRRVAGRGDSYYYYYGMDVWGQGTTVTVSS VL: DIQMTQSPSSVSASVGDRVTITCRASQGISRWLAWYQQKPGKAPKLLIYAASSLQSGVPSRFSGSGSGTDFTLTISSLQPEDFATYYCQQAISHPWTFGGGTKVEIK; 8.94

// next item, pIC50 requested
Query (binder): Ab-31 (antibody, V domains shown) VH: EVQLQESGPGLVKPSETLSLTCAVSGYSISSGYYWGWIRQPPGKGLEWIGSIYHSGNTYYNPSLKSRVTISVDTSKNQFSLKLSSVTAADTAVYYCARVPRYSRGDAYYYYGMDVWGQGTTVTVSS VL: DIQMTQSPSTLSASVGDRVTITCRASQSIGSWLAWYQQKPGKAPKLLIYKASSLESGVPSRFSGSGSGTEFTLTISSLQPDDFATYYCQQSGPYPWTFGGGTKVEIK ; field requested: pIC50
9.03
